// reported kon for each item listed
target: T1, linked peptide (HIV-1, strain  (synthetic …)); test: BLI; Octet Red; Mabs captured on anti-human IgG Fc biosensors (10 µg/mL), peptides or ES2 as analyte in solution, two-fold dilutions 500 nM to 7.81 nM, PBS pH 7.4, 0.2% Tween 20, 60 s association and 60 s dissociation, no lipid; Langmuir 1:1 fit; also used for the alanine-substituted MPER peptides; details: both partners purified
T1 construct: source: synthetic peptide (Genscript)
Report as: number unit

Known results for binders:
2F5 CDRH3 length-altered variant r4 (antibody, V domains shown) VH: RITLKESGPPLVKPTQTLTLTCSFSGFSLSDFGVGVGWIRQPPGKALEWLAIIYSDDDKRYSPSLNTRLTITKDTSKNQVVLVMTRVSPVDTATYFCAHRRGPLFGVARGPVNAMDVWGQGITVTISS VL: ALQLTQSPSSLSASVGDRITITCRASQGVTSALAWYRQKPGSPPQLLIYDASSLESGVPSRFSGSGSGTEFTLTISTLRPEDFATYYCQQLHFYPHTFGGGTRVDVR; 100000 M⁻¹ s⁻¹
2F5 CDRH3 length-altered variant r2 (antibody, V domains shown) VH: RITLKESGPPLVKPTQTLTLTCSFSGFSLSDFGVGVGWIRQPPGKALEWLAIIYSDDDKRYSPSLNTRLTITKDTSKNQVVLVMTRVSPVDTATYFCAHRRGPTLFGVIARGPVNAMDVWGQGITVTISS VL: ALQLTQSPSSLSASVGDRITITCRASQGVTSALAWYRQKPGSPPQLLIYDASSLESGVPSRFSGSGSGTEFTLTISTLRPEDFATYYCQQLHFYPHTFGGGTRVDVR; 150000 M⁻¹ s⁻¹
2F5 CDRH3 length-altered variant e4 (antibody, V domains shown) VH: RITLKESGPPLVKPTQTLTLTCSFSGFSLSDFGVGVGWIRQPPGKALEWLAIIYSDDDKRYSPSLNTRLTITKDTSKNQVVLVMTRVSPVDTATYFCAHRRGPTTGGLFGVGGPIARGPVNAMDVWGQGITVTISS VL: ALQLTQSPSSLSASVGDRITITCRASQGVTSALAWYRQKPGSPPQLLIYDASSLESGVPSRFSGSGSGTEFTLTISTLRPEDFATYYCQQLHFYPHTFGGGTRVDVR; 130000 M⁻¹ s⁻¹
2F5 CDRH3 length-altered variant r6 (antibody, V domains shown) VH: RITLKESGPPLVKPTQTLTLTCSFSGFSLSDFGVGVGWIRQPPGKALEWLAIIYSDDDKRYSPSLNTRLTITKDTSKNQVVLVMTRVSPVDTATYFCAHRRGLFGVRGPVNAMDVWGQGITVTISS VL: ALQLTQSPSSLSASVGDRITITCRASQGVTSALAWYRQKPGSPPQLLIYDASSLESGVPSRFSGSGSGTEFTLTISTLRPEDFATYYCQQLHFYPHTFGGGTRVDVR; 180000 M⁻¹ s⁻¹

Exercise: Suppose we examine the binder 2F5 CDRH3 length-altered variant e2 (antibody, V domains shown) VH: RITLKESGPPLVKPTQTLTLTCSFSGFSLSDFGVGVGWIRQPPGKALEWLAIIYSDDDKRYSPSLNTRLTITKDTSKNQVVLVMTRVSPVDTATYFCAHRRGPTTGLFGVGPIARGPVNAMDVWGQGITVTISS VL: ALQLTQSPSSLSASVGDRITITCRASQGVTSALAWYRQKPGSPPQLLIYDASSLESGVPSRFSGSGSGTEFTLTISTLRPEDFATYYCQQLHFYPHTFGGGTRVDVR ; what kon value has been reported?
Key: 130000 M⁻¹ s⁻¹
